Each record here notes measured EC50, HEK-Blue IL18R reporter cells.
Molecular target: T1, IL-18 receptor (IL-18Rα/IL-18Rβ) on cells (HEK-Blue IL18R reporter cells, NK-92, KG-1) (human, UniProt Q13478 19-541; O95256 20-599)
T1 sequence (looked up) 1: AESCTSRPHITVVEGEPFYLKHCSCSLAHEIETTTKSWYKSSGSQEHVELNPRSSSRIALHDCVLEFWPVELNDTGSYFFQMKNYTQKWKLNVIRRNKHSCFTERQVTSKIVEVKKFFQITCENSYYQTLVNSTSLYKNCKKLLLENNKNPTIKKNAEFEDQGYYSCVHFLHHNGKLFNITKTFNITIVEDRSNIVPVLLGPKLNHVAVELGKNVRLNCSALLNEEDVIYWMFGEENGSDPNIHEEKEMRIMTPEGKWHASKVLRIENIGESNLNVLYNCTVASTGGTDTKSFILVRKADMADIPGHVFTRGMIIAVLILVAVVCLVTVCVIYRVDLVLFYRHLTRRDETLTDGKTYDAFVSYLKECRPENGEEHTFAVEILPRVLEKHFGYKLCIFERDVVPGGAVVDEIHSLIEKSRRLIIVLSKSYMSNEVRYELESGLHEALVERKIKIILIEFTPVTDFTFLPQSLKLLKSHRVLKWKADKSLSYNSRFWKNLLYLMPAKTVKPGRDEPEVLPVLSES
T1 sequence (looked up) 2: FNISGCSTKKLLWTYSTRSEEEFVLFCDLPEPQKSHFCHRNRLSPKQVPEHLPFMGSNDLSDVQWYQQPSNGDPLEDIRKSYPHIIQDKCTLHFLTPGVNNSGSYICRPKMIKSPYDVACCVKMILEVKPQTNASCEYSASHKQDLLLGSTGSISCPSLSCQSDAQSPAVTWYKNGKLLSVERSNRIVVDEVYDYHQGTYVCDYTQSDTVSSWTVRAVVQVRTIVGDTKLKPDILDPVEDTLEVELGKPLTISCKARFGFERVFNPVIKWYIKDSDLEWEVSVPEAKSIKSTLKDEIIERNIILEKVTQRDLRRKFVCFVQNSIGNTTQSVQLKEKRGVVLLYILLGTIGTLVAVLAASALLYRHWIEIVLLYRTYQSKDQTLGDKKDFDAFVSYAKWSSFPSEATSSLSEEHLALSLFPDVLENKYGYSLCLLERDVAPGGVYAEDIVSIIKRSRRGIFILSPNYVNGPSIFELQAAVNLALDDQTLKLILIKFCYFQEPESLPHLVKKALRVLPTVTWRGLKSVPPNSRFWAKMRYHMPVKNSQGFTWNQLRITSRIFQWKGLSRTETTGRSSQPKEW
Test: cell-based or functional assay
property: EC50, HEK-Blue IL18R reporter cells (pM)

binder: IL-18 polypeptide of SEQ ID NO: 56 (E6K, K53A, C38S, C76S, C127S) (ligand) YFGKLKSKLSVIRNLNDQVLFIDQGNRPLFEDMTDSDSRDNAPRTIFIISMYADSQPRGMAVTISVKCEKISTLSSENKIISFKEMNPPDNIKDTKSDIIFFQRSVPGHDNKMQFESSSYEGYFLASEKERDLFKLILKKEDELGDRSIMFTVQNED
units: pM
meas_value: 3.73
//
binder: IL-18 polypeptide C151 (ligand, also called V11I, D35A, C38A, K53A, C76A, C127A) YFGKLESKLSIIRNLNDQVLFIDQGNRPLFEDMTASDARDNAPRTIFIISMYADSQPRGMAVTISVKCEKISTLSAENKIISFKEMNPPDNIKDTKSDIIFFQRSVPGHDNKMQFESSSYEGYFLAAEKERDLFKLILKKEDELGDRSIMFTVQNED
units: pM
meas_value: 13.1
//
binder: IL-18 polypeptide C158 (ligand, also called V11I, C38A, K53A, C76A, G108A, C127A) YFGKLESKLSIIRNLNDQVLFIDQGNRPLFEDMTDSDARDNAPRTIFIISMYADSQPRGMAVTISVKCEKISTLSAENKIISFKEMNPPDNIKDTKSDIIFFQRSVPAHDNKMQFESSSYEGYFLAAEKERDLFKLILKKEDELGDRSIMFTVQNED
units: pM
meas_value: 15.6
//
binder: IL-18 polypeptide C162 (ligand, also called K8E, V11I, C38A, C76A, Q103R, C127A) YFGKLESELSIIRNLNDQVLFIDQGNRPLFEDMTDSDARDNAPRTIFIISMYKDSQPRGMAVTISVKCEKISTLSAENKIISFKEMNPPDNIKDTKSDIIFFRRSVPGHDNKMQFESSSYEGYFLAAEKERDLFKLILKKEDELGDRSIMFTVQNED
units: pM
meas_value: 2.3
//
binder: IL-18 polypeptide C164 (ligand, also called V11I, C38A, S55H, C76A, C127A) YFGKLESKLSIIRNLNDQVLFIDQGNRPLFEDMTDSDARDNAPRTIFIISMYKDHQPRGMAVTISVKCEKISTLSAENKIISFKEMNPPDNIKDTKSDIIFFQRSVPGHDNKMQFESSSYEGYFLAAEKERDLFKLILKKEDELGDRSIMFTVQNED
units: pM
meas_value: 3.14
//
binder: IL-18 polypeptide C177 (ligand) YFGKLKSKLSIIRNLNDQVLFIDQGNRPLFEDMTDSDARDNAPRTIFIRSMYADSQPRGMAVAISVKCEKISTLSAENKIISFKEMNPPDNIKDTKSDIIFFQRSVPGHDNKMQFESSSYEGYFLAAEKERDLFKLILKKEDELGDRSIMFTVQNED
units: pM
meas_value: 0.04
//
binder: IL-18 polypeptide C176 (ligand, also called E6K, V11I, C38A, I49M, K53A, T63A, C76A, C127A) YFGKLKSKLSIIRNLNDQVLFIDQGNRPLFEDMTDSDARDNAPRTIFIMSMYADSQPRGMAVAISVKCEKISTLSAENKIISFKEMNPPDNIKDTKSDIIFFQRSVPGHDNKMQFESSSYEGYFLAAEKERDLFKLILKKEDELGDRSIMFTVQNED
units: pM
meas_value: 0.07
//
binder: IL-18 polypeptide C143 (ligand, also called V11I, C38A, K53A, C76A, C127A) YFGKLESKLSIIRNLNDQVLFIDQGNRPLFEDMTDSDARDNAPRTIFIISMYADSQPRGMAVTISVKCEKISTLSAENKIISFKEMNPPDNIKDTKSDIIFFQRSVPGHDNKMQFESSSYEGYFLAAEKERDLFKLILKKEDELGDRSIMFTVQNED
units: pM
meas_value: 0.98
//
binder: IL-18 polypeptide C145 (ligand, also called V11I, C38A, K53A, S55A, C76A, C127A) YFGKLESKLSIIRNLNDQVLFIDQGNRPLFEDMTDSDARDNAPRTIFIISMYADAQPRGMAVTISVKCEKISTLSAENKIISFKEMNPPDNIKDTKSDIIFFQRSVPGHDNKMQFESSSYEGYFLAAEKERDLFKLILKKEDELGDRSIMFTVQNED
units: pM
meas_value: 3.63
//
binder: IL-18 polypeptide C178 (ligand) YFGKLKSKLSIIRNLNDQVLFIDQGNRPLFEDMTDSDARDNAPRTIFIISMYADSQPRGMAVAISVKCEKISTLSAENKIISFKEMNPPDNIKDTKSDIIFFRRSVPGHDNKMQFESSSYEGYFLAAEKERDLFKLILKKEDELGDRSIMFTVQNED
units: pM
meas_value: 0.26
//
binder: IL-18 polypeptide C154 (ligand, also called V11I, E31A, D37A, C38A, K53A, C76A, C127A) YFGKLESKLSIIRNLNDQVLFIDQGNRPLFADMTDSAARDNAPRTIFIISMYADSQPRGMAVTISVKCEKISTLSAENKIISFKEMNPPDNIKDTKSDIIFFQRSVPGHDNKMQFESSSYEGYFLAAEKERDLFKLILKKEDELGDRSIMFTVQNED
units: pM
meas_value: 11.9
//
binder: IL-18 polypeptide C155 (ligand, also called V11I, C38A, D40A, K53A, C76A, C127A) YFGKLESKLSIIRNLNDQVLFIDQGNRPLFEDMTDSDARANAPRTIFIISMYADSQPRGMAVTISVKCEKISTLSAENKIISFKEMNPPDNIKDTKSDIIFFQRSVPGHDNKMQFESSSYEGYFLAAEKERDLFKLILKKEDELGDRSIMFTVQNED
units: pM
meas_value: 0.52
//
binder: IL-18 polypeptide C149 (ligand, also called V11I, E31A, C38A, K53A, C76A, C127A) YFGKLESKLSIIRNLNDQVLFIDQGNRPLFADMTDSDARDNAPRTIFIISMYADSQPRGMAVTISVKCEKISTLSAENKIISFKEMNPPDNIKDTKSDIIFFQRSVPGHDNKMQFESSSYEGYFLAAEKERDLFKLILKKEDELGDRSIMFTVQNED
units: pM
meas_value: 6.6
